Data provenance is ChEMBL document CHEMBL5665443.

This listing pairs compounds with measured inhibition.
- Experimental system: Endonuclease 8-like 2 (Homo sapiens) (UniProt Q969S2);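 note: fluorescence at 594 nm reports NEIL2 cutting and release of a quenched double-stranded DNA oligo substrate, reduced signal read as inhibition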
- Sequence (whole entry): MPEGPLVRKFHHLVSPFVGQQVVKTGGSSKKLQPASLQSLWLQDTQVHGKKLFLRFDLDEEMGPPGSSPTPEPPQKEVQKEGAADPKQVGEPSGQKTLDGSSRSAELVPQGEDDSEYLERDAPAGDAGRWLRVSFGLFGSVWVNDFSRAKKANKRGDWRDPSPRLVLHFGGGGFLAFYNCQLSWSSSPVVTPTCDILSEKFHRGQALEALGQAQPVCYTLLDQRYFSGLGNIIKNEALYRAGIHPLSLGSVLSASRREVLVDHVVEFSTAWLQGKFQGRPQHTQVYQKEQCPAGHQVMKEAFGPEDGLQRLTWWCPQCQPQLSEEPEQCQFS
- Test settings: Compound Concentration 10.0 uM, Hit No
- Description: Inhibition of NEIL2 by quantifying inhibition of NEIL2-mediated cleavage and dissociation of quenched duplex DNA oligonucleotides, measured as fluorescence at 594 nm.
Answer format: numeric, % implied, no suffix.

Please review the entries below; each comes with its answer.
Cc1cc(NC(=O)c2cccc(S(F)(F)(F)(F)F)c2)cc(-n2ccn3nc(-c4cccnc4)cc23)c1; -7.89
C=C1/C(=C\C=C2/CCC[C@]3(C)[C@@H]([C@H](C)/C=C/[C@H](C)C(C)C)CC[C@@H]23)C[C@@H](O)C[C@@H]1O; -1.51
Cc1ccc(C(C)(O)c2nc3ccccc3s2)c(C)c1 (stereo not drawn); 11
CSc1nc(NC2CCCC2)c([N+](=O)[O-])c(NC2CCCC2)n1; 7.5

Query: Can you share its inhibition? I mean this compound: "O=C(N[C@H]1CN2CCC1CC2)c1ccc(Cl)cc1"
Reply: 3.98

Query: Also COc1ccc2c(O[C@@H]3C[C@H]4C(=O)N[C@]5(C(=O)O)CC5/C=C\CCCCC[C@H](NC(=O)OC5CCCC5)C(=O)N4C3)cc(-c3csc(NC(=O)C(C)C)n3)nc2c1C (stereo partly drawn) , if possible.
Reply: 1.3

Query: Also COc1cc2nc(N3CCN(C(=O)C4CCCO4)CC3)nc(N)c2cc1OC (stereo not drawn) , if possible.
Reply: 22.5

Query: Also CCCCCN1C(=O)C2(COc3cc4c(cc32)OCO4)c2ccccc21 (stereo not drawn) , if possible.
Reply: 0.924

Query: Also "FC(F)(F)c1ccccc1-c1cc(C(F)(F)F)c2[nH]c(C3=NOC4(CCCCC4)C3)nc2c1" , if possible.
Reply: 0.669

====

- Experimental system: UniProt:Q96FI4
- Sequence (Q96FI4 whole entry): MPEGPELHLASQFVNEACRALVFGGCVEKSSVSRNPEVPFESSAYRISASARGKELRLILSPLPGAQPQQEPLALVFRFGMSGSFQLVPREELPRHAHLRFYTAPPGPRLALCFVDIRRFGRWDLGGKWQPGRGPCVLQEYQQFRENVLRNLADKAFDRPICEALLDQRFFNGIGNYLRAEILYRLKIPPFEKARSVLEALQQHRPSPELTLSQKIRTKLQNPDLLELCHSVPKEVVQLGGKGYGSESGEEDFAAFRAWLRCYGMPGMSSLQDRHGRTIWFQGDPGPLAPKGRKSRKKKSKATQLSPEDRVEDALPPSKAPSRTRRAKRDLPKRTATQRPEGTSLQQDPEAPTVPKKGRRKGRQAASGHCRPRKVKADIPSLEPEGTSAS
- Test settings: Compound Concentration 10.0 uM, Hit No
- Description: Inhibition of NEIL1 by quantifying inhibition of NEIL1-mediated cleavage and dissociation of quenched duplex DNA oligonucleotides, measured as fluorescence at 594 nm.
This listing pairs compounds with measured inhibition.
Answer format: numeric, % implied, no suffix.

Please review the entries below; each comes with its answer.
Cc1csc(NC(=O)c2cc(F)cc(Oc3cncnc3)c2)n1; -4.5
C[C@@H]1CN(c2cc(-c3n[nH]c4ccc(OC5(C)CC5)cc34)ncn2)C[C@H](C)O1; -1.5
CCCn1c(=O)c2[nH]c(-c3cnn(Cc4cccc(C(F)(F)F)c4)c3)nc2n(CC)c1=O; -6.43
COc1cc(C(=O)NS(=O)(=O)c2ccccc2C)ccc1Cc1cn(C)c2ccc(NC(=O)OC3CCCC3)cc12; 13.9

Query: Can you share its inhibition? I mean this compound: "CCCN1CCO[C@H]2c3cc(O)ccc3OC[C@@H]21"
Reply: 8.1

====

- Experimental system: Methyl-CpG-binding domain protein 4 (Homo sapiens) (UniProt O95243);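 note: MBD4 activity read as fluorescence at 594 nm from cleavage and release of a quenched duplex DNA oligonucleotide, with APE1 coupled to incise the strand and raise turnover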
- Sequence (O95243 whole entry, the tested form may be a part): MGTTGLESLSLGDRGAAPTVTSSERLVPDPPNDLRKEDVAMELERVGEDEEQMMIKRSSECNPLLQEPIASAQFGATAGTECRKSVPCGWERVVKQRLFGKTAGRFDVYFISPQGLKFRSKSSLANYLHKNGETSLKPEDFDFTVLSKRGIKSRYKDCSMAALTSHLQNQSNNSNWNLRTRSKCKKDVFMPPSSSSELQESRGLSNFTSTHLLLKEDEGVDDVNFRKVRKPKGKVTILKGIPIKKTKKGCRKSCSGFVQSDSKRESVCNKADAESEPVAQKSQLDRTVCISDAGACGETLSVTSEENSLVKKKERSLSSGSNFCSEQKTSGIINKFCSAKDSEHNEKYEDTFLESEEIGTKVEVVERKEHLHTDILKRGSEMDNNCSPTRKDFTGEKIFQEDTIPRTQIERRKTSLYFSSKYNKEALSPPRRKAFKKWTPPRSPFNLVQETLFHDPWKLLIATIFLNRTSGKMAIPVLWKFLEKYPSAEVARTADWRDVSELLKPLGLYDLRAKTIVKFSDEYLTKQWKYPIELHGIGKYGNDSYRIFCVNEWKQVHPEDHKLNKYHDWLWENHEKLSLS
- Test settings: Compound Concentration 10.0 uM, Hit No
- Description: Inhibition of MBD4 by quantifying inhibition of MBD4-mediated cleavage and dissociation of quenched duplex DNA oligonucleotides, measured as fluorescence at 594 nm. To generate a functional strand incision and increase turn-over this assay is coupled to APE1.
This listing pairs compounds with measured inhibition.
Answer format: numeric, % implied, no suffix.

Please review the entries below; each comes with its answer.
CCCc1nc2c(C)cc(-c3nc4ccccc4n3C)cc2n1Cc1ccc(-c2ccccc2C(=O)O)cc1; 15.7
CC[C@@H](C)Nc1nc(C)nc2c(-c3ccc(OC)nc3C)c(C)nn12; 8.63
NCCc1c[nH]c2ccc(C(N)=O)cc12; -4.67
O=c1cccc2n1C[C@@H]1CNC[C@H]2C1; 10.5
COc1ccc(CCCN2CCC(COC(c3ccccc3)c3ccccc3)CC2)cc1; 49.2
CCO[C@@H](Cc1ccc(OCCc2ccc(OS(C)(=O)=O)cc2)cc1)C(=O)O; 65.1

Query: Can you share its inhibition? I mean this compound: "O=[N+]([O-])c1ccc2nc(COCc3nc4ccc([N+](=O)[O-])cc4[nH]3)[nH]c2c1"
Reply: 19.9

Query: Also "Cc1cc(C)cc(C(=O)N(C)[C@H](Cc2ccc(-c3ccccc3)cc2)C(=O)N[C@@H](Cc2c[nH]c3ccccc23)C(=O)O)c1" , if possible.
Reply: 60.3

Query: Also "CC(=O)[C@H]1CC[C@H]2[C@@H]3CC[C@H]4C[C@H](O)CC[C@]4(C)[C@H]3CC[C@]12C" , if possible.
Reply: 25.8

Query: Also "CCCCc1oc2ccccc2c1C(=O)c1cc(I)c(OCCN(CC)CC)c(I)c1" , if possible.
Reply: 28.2

Query: Also "CN1CC[C@@]23CCCC[C@@H]2[C@@H]1Cc1ccc(O)cc13" , if possible.
Reply: 3.69

Query: Also "CNC[C@H](O)c1cccc(O)c1" , if possible.
Reply: -3.74

Query: Also "CN(C)C(=O)c1cc2cnc(Nc3ccc(N4CCNCC4)cn3)nc2n1C1CCCC1" , if possible.
Reply: 24.6

Query: Also "CCOc1cc(N2CCC(O)CC2)ccc1Nc1ncc2c(n1)N(C1CCCC1)CCC(=O)N2C" , if possible.
Reply: -5.19

Query: Also "COc1ccc(-c2csc(NC(=O)[C@H]3CCCCN3S(=O)(=O)c3ccc(C)cc3)n2)cc1" , if possible.
Reply: 10.3

Query: Also "COC(=O)c1cc2c(cn1)[nH]c1ccccc12" , if possible.
Reply: 8.08

Query: Also "CSc1ccc(C(=O)N[C@@H]2CCCC[C@@H]2NC(=O)CNC(=O)c2cc(C(F)(F)F)ccc2NC(=O)NC(C)C)cc1" , if possible.
Reply: 13.3

Query: Also "CCCCN1CCC(COC(=O)c2cc(Cl)c(N)c3c2OCCO3)CC1" , if possible.
Reply: 4.39

Query: Also "CCNC(=O)N1CCCN(c2ccc(C(=O)NCCc3ccc(Cl)cc3Cl)cc2NC(=O)c2cccc(Cl)c2)CC1" , if possible.
Reply: -1.37

Query: Also "CN(C)CCn1cc(S(=O)(=O)c2cccc(F)c2)c2cccnc21" , if possible.
Reply: 7
